The measurements presented in this section are drawn from ChEMBL document CHEMBL3621056.

The entries below come with measured Activity values attached.
assay: Antiinvasive activity in human U87 cells at 2.5 uM after 24 hrs by Transwell assay relative to control; assay type: functional, U-87MG ATCC

Illustrative cases are given below, each with its answer.
[
  {
    "COMPOUND_STRING": "CCCCCCCCCCCCCCCCCCc1c2[n+](cc3c(OC)c(OC)ccc13)CCc1cc3c(cc1-2)OCO3.[I-]",
    "Activity": ">30%"
  },
  {
    "COMPOUND_STRING": "CCCCCCCCCCCCCCCCOc1c(OC)ccc2cc3[n+](cc12)CCc1cc2c(cc1-3)OCO2.[Br-]",
    "Activity": ">60%"
  },
  {
    "COMPOUND_STRING": "COc1ccc2cc3[n+](cc2c1OCc1ccccc1)CCc1cc2c(cc1-3)OCO2.[Br-]",
    "Activity": ">30%"
  }
]

Requested field: Activity. Item: CCCCCCCCCCCCCCCCCCOc1c(OC)ccc2cc3[n+](cc12)CCc1cc2c(cc1-3)OCO2.[Br-]
>30%

---

system: C6; experiment: Antiinvasive activity in rat C6 cells at 0.5 uM after 24 hrs by Transwell assay relative to control; assay type: functional
The source made the active and inactive calls. The calls are words filed in the database; no cut-off is given here.
OBSERVABLE: Activity

[
  {
    "COMPOUND_STRING": "CCCCCCCCCCc1c2[n+](cc3c(OC)c(OC)ccc13)CCc1cc3c(cc1-2)OCO3",
    "TARGET_OF_ASSAY": "C6",
    "Activity": "Active"
  },
  {
    "COMPOUND_STRING": "CCCCCCCCCCOc1c(OC)ccc2cc3[n+](cc12)CCc1cc2c(cc1-3)OCO2",
    "TARGET_OF_ASSAY": "C6",
    "Activity": "Active"
  },
  {
    "COMPOUND_STRING": "CCCCCCCCCCCCCCCCCCOc1c(OC)ccc2cc3[n+](cc12)CCc1cc2c(cc1-3)OCO2.[Br-]",
    "TARGET_OF_ASSAY": "C6",
    "Activity": ">30%"
  },
  {
    "COMPOUND_STRING": "CCCCCCCCCCCCCCCCOc1c(OC)ccc2cc3[n+](cc12)CCc1cc2c(cc1-3)OCO2.[Br-]",
    "TARGET_OF_ASSAY": "C6",
    "Activity": ">60%"
  },
  {
    "COMPOUND_STRING": "COc1ccc2cc3[n+](cc2c1OCc1ccccc1)CCc1cc2c(cc1-3)OCO2.[Br-]",
    "TARGET_OF_ASSAY": "C6",
    "Activity": ">30%"
  }
]

Requested field: Activity. Item: CCCCCCCCCCCCCCCCc1c2[n+](cc3c(OC)c(OC)ccc13)CCc1cc3c(cc1-2)OCO3.[I-]
>30%

Requested field: Activity. Item: CCCCCCCCCCCCCCCCCCc1c2[n+](cc3c(OC)c(OC)ccc13)CCc1cc3c(cc1-2)OCO3.[I-]
>30%

Requested field: Activity. Item: CCCCCCCCCCCCOc1c(OC)ccc2cc3[n+](cc12)CCc1cc2c(cc1-3)OCO2.[Br-]
>60%

Requested field: Activity. Item: CCCCCCCCCCCCc1c2[n+](cc3c(OC)c(OC)ccc13)CCc1cc3c(cc1-2)OCO3.[I-]
>60%
